Each record here notes measured Single impurities.
Experiment: Stability of liquid pharmaceutical forms (peptide 0.2 %, benzalkonium chloride 0.01 %, water) during storage; single and total impurities
Format: physicochemical
Conditions: stored for 6 months at +25° C.
Description: Investigations of the Stability of Pharmaceutical Forms Containing Peptides Having the Property of Stimulating the Genital and Sexual Functions This experiment investigated the stability of compositions containing peptides according to the invention. […]
Non-standard residues stand in square brackets, D forms with d. No end group written: not given here. Hyp = O=C(O)[C@@H]1C[C@@H](O)CN1
Give just the numeric value; % need not be written.

Q: Entry Thr-Lys-Hyp-Arg-Hyp-Phe (TK[Hyp]R[Hyp]F) [hexapeptide of the invention containing hydroxyproline] has what Single impurities?
Result: 0.09

Q: Moving on to the next substance: Thr-Lys-Pro-Arg-Pro (TKPRP; not fully specified; printed as Thr-Lys-Pro-Arg-Pro) [pentapeptide described in RU2507212, comparison peptide, reference compound]
Result: 1.4

Q: Moving on to the next substance: Thr-Lys-Pro-Arg-Pro-Phe (TKPRPF; not fully specified; printed as Thr-Lys-Pro-Arg-Pro-Phe) [hexapeptide described in RU2507212, comparison peptide, reference compound]
Result: 1.9

Q: Moving on to the next substance: Thr-Lys-Pro-Arg-Pro-Gly-Pro (TKPRPGP; not fully specified; printed as Thr-Lys-Pro-Arg-Pro-Gly-Pro) [heptopeptide “Selank”, a synthetic analogue of the endogenous peptide tuftsin, reference compound]
Result: 1.7

Q: Moving on to the next substance: Thr-Lys-Hyp-Arg-Hyp (TK[Hyp]R[Hyp]) [pentapeptide of the invention containing hydroxyproline]
Result: 0.1

Q: Moving on to the next substance: Thr-Lys-Hyp-Arg-Hyp-Gly-Hyp (TK[Hyp]R[Hyp]G[Hyp]) [peptide according to the invention containing hydroxyproline]
Result: 0.09

###

Each record here notes measured Single impurities.
Assay: Stability of liquid pharmaceutical forms (peptide 0.2 %, benzalkonium chloride 0.01 %, water) during storage; single and total impurities
Format: physicochemical
Conditions: stored for 3 months at +25° C.
Description: Investigations of the Stability of Pharmaceutical Forms Containing Peptides Having the Property of Stimulating the Genital and Sexual Functions This experiment investigated the stability of compositions containing peptides according to the invention. […]
Non-standard residues stand in square brackets, D forms with d. No end group written: not given here. Hyp = O=C(O)[C@@H]1C[C@@H](O)CN1
Give just the numeric value; % need not be written.

Please review the following examples before continuing.
Q: Entry Thr-Lys-Hyp-Arg-Hyp-Gly-Hyp (TK[Hyp]R[Hyp]G[Hyp]) [peptide according to the invention containing hydroxyproline] has what Single impurities?
Result: 0.07

Q: Moving on to the next substance: Thr-Lys-Pro-Arg-Pro-Phe (TKPRPF; not fully specified; printed as Thr-Lys-Pro-Arg-Pro-Phe) [hexapeptide described in RU2507212, comparison peptide, reference compound]
Result: 0.9

Next:
Q: Entry Thr-Lys-Hyp-Arg-Hyp (TK[Hyp]R[Hyp]) [pentapeptide of the invention containing hydroxyproline] has what Single impurities?
Result: 0.047

Q: Moving on to the next substance: Thr-Lys-Pro-Arg-Pro (TKPRP; not fully specified; printed as Thr-Lys-Pro-Arg-Pro) [pentapeptide described in RU2507212, comparison peptide, reference compound]
Result: 0.19

Q: Moving on to the next substance: Thr-Lys-Pro-Arg-Pro-Gly-Pro (TKPRPGP; not fully specified; printed as Thr-Lys-Pro-Arg-Pro-Gly-Pro) [heptopeptide “Selank”, a synthetic analogue of the endogenous peptide tuftsin, reference compound]
Result: 0.9

Q: Moving on to the next substance: Thr-Lys-Hyp-Arg-Hyp-Phe (TK[Hyp]R[Hyp]F) [hexapeptide of the invention containing hydroxyproline]
Result: 0.033
